From: ChEMBL document CHEMBL1149733

target: DNA topoisomerase 2-alpha (Homo sapiens); assay: Inhibition of strand rejoining activity of human DNA topoisomerase 2 assessed as protein-DNA complex formation at 20 uM by cell-based assay; parameters: scale not given: the % may be the effect or the level left
Activity overview
measure-name: Activity

COC1=CC([C@@H]2c3cc4c(cc3[C@@H](Nc3ccc(C(C)=O)cc3)[C@H]3COC(=O)[C@@H]32)OCO4)=CC(=O)C1=O: 69%
COC1=CC([C@@H]2c3cc4c(cc3[C@@H](Nc3ccccc3F)[C@H]3COC(=O)[C@@H]32)OCO4)=CC(=O)C1=O: 29%
COc1cc([C@@H]2c3cc4c(cc3[C@@H](Nc3ccc([N+](=O)[O-])cc3)[C@H]3COC(=O)[C@H]23)OCO4)cc(O)c1O: 200%
COC1=CC([C@@H]2c3cc4c(cc3[C@@H](Nc3ccc(Cl)cc3)[C@H]3COC(=O)[C@@H]32)OCO4)=CC(=O)C1=O: 27%

* * *

molecular target: DNA topoisomerase 2-alpha (Homo sapiens); assay: Inhibition of human DNA topoisomerase 2
measure-name: log10(ID50) (log10 of the value in µM)

COC(=O)c1cccc(N[C@@H]2c3cc4c(cc3[C@@H](c3cc(OC)c(O)c(OC)c3)[C@H]3C(=O)OC[C@@H]32)OCO4)c1: 1.70
COC1=CC([C@@H]2c3cc4c(cc3[C@@H](Nc3ccc(C(C)=O)cc3)[C@H]3COC(=O)[C@@H]32)OCO4)=CC(=O)C1=O: 1.70
COC1=CC([C@@H]2c3cc4c(cc3[C@@H](Nc3cc([N+](=O)[O-])cc([N+](=O)[O-])c3)[C@H]3COC(=O)[C@@H]32)OCO4)=CC(=O)C1=O: 1.70
COc1cc([C@@H]2c3cc4c(cc3[C@@H](Nc3ccccc3)[C@H]3COC(=O)[C@H]23)OCO4)cc(O)c1O: 1.40
COC1=CC([C@@H]2c3cc4c(cc3[C@H](O)[C@H]3COC(=O)[C@@H]32)OCO4)=CC(=O)C1=O: 1.00
COC(=O)c1cccc(N[C@@H]2c3cc4c(cc3[C@@H](c3cc(O)c(O)c(OC)c3)[C@H]3C(=O)OC[C@@H]32)OCO4)c1: 1.40
COc1cc([C@@H]2c3cc4c(cc3[C@@H](Nc3ccc([N+](=O)[O-])cc3)[C@H]3COC(=O)[C@H]23)OCO4)cc(OC)c1O: 1.00
COc1cc([C@@H]2c3cc4c(cc3[C@@H](O)[C@H]3COC(=O)[C@H]23)OCO4)cc(O)c1O: 2.00
CCOC(=O)c1ccccc1N[C@@H]1c2cc3c(cc2[C@@H](C2=CC(=O)C(=O)C(OC)=C2)[C@H]2C(=O)OC[C@@H]21)OCO3: 2.00
COC1=CC([C@@H]2c3cc4c(cc3C(=O)[C@H]3COC(=O)[C@@H]32)OCO4)=CC(=O)C1=O: 0.70
COc1cc([C@@H]2c3cc4c(cc3[C@@H](Nc3ccc(F)cc3)[C@H]3COC(=O)[C@H]23)OCO4)cc(O)c1O: 1.00
COC1=CC([C@@H]2c3cc4c(cc3[C@@H](Nc3ccccc3F)[C@H]3COC(=O)[C@@H]32)OCO4)=CC(=O)C1=O: 2.00
COC1=CC([C@@H]2c3cc4c(cc3[C@@H](Nc3ccc(F)cc3)[C@H]3COC(=O)[C@@H]32)OCO4)=CC(=O)C1=O: 1.40
COc1cc([C@@H]2c3cc4c(cc3[C@@H](Nc3ccc([N+](=O)[O-])cc3)[C@H]3COC(=O)[C@H]23)OCO4)cc(O)c1O: 1.00
COC1=CC([C@@H]2c3cc4c(cc3[C@@H](Oc3ccc(F)cc3)[C@H]3COC(=O)[C@@H]32)OCO4)=CC(=O)C1=O: 2.00
COc1cc([C@@H]2c3cc4c(cc3[C@@H](Nc3ccc(F)cc3)[C@H]3COC(=O)[C@H]23)OCO4)cc(OC)c1O: 0.70
COC1=CC([C@@H]2c3cc4c(cc3[C@@H](Nc3ccc(CC#N)cc3)[C@H]3COC(=O)[C@@H]32)OCO4)=CC(=O)C1=O: 1.40
CCOC(=O)c1ccc(N[C@@H]2c3cc4c(cc3[C@@H](c3cc(OC)c(O)c(OC)c3)[C@H]3C(=O)OC[C@@H]32)OCO4)cc1: 0.70
COC(=O)c1ccc(N[C@@H]2c3cc4c(cc3[C@@H](C3=CC(=O)C(=O)C(OC)=C3)[C@H]3C(=O)OC[C@@H]32)OCO4)cc1O: 2.00
COC1=CC([C@@H]2c3cc4c(cc3[C@@H](Nc3cncc5ccccc35)[C@H]3COC(=O)[C@@H]32)OCO4)=CC(=O)C1=O: 2.00
COC(=O)c1cccc(N[C@@H]2c3cc4c(cc3[C@@H](C3=CC(=O)C(=O)C(OC)=C3)[C@H]3C(=O)OC[C@@H]32)OCO4)c1: 2.00
COc1cc([C@@H]2c3cc4c(cc3[C@@H](Nc3ccc(C(C)=O)cc3)[C@H]3COC(=O)[C@H]23)OCO4)cc(O)c1O: 1.40
COC1=CC([C@@H]2c3cc4c(cc3[C@@H](Nc3ccc(Cl)cc3)[C@H]3COC(=O)[C@@H]32)OCO4)=CC(=O)C1=O: 1.40

* * *

Activity overview
target: UniProt:P11388; assay: Inhibition of strand rejoining activity of human DNA topoisomerase 2 assessed as protein-DNA complex formation at 10 uM by cell-based assay; parameters: scale not given: the % may be the effect or the level left
Sequence (P11388 whole entry): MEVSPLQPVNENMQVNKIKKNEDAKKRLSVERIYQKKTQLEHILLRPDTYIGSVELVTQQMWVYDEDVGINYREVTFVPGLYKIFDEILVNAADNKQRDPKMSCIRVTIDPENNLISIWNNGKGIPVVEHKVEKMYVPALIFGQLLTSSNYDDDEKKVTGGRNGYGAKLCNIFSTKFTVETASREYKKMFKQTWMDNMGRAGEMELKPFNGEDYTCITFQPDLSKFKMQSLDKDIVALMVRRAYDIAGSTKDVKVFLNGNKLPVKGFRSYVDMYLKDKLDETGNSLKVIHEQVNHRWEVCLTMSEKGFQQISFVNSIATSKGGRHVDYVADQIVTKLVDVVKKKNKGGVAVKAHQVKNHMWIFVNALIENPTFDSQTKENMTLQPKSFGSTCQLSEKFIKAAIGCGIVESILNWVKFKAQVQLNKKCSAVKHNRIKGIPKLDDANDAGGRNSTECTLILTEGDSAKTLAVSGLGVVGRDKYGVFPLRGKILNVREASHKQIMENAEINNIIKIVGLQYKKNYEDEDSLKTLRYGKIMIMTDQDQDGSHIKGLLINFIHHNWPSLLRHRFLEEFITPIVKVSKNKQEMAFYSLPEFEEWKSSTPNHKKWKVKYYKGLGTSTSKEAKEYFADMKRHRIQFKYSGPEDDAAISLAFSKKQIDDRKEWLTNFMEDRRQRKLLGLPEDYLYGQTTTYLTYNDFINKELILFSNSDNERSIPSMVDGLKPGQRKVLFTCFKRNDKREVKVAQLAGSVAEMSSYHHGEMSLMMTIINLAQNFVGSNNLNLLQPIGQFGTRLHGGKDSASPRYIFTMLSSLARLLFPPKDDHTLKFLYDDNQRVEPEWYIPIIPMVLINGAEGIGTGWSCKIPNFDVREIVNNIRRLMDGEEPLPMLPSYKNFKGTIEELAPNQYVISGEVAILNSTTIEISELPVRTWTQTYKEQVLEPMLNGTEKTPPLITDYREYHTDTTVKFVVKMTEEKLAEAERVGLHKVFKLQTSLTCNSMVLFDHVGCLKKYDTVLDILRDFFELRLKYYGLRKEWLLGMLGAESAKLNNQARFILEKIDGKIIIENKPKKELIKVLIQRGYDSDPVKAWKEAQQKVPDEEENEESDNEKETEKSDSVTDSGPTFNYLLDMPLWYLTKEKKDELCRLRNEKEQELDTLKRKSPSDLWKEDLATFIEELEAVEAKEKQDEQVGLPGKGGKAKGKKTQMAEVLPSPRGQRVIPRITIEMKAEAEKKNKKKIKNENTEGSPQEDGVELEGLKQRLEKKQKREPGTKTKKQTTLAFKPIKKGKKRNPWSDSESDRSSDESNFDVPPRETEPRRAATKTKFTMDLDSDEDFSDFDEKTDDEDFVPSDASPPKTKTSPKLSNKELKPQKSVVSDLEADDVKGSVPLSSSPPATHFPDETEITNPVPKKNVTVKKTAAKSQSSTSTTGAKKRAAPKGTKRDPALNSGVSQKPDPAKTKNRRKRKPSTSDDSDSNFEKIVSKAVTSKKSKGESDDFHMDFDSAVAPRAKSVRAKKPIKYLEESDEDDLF
measure-name: Activity (%)

COc1cc([C@@H]2c3cc4c(cc3[C@@H](Nc3cncc5ccccc35)[C@H]3COC(=O)[C@H]23)OCO4)cc(OC)c1O: 123
COc1cc([C@@H]2c3cc4c(cc3[C@@H](Nc3cc(F)cc(F)c3)[C@H]3COC(=O)[C@H]23)OCO4)cc(OC)c1O: 115
COc1cc([C@@H]2c3cc4c(cc3[C@@H](Nc3ccccc3F)[C@H]3COC(=O)[C@H]23)OCO4)cc(OC)c1O: 121
COc1cc([C@@H]2c3cc4c(cc3[C@@H](Nc3ccc([N+](=O)[O-])cc3)[C@H]3COC(=O)[C@H]23)OCO4)cc(OC)c1O: 323
COC(=O)c1ccc(N[C@@H]2c3cc4c(cc3[C@@H](c3cc(OC)c(O)c(OC)c3)[C@H]3C(=O)OC[C@@H]32)OCO4)cc1O: 129
COc1cc([C@@H]2c3cc4c(cc3[C@@H](Oc3ccc(F)cc3)[C@H]3COC(=O)[C@H]23)OCO4)cc(OC)c1O: 57
COC(=O)c1cccc(N[C@@H]2c3cc4c(cc3[C@@H](c3cc(OC)c(O)c(OC)c3)[C@H]3C(=O)OC[C@@H]32)OCO4)c1: 129
CCOC(=O)c1ccc(N[C@@H]2c3cc4c(cc3[C@@H](c3cc(OC)c(O)c(OC)c3)[C@H]3C(=O)OC[C@@H]32)OCO4)cc1: 207
COc1cc([C@@H]2c3cc4c(cc3[C@@H](Nc3ccc(F)cc3)[C@H]3COC(=O)[C@H]23)OCO4)cc(OC)c1O: 2.13
COc1cc([C@@H]2c3cc4c(cc3[C@H](O)[C@H]3COC(=O)[C@H]23)OCO4)cc(OC)c1O: 1.1

* * *

target: DNA topoisomerase 2-alpha (Homo sapiens); experiment: Inhibition of human DNA topoisomerase 2
measure-name: ID50 (µM)

COC1=CC([C@@H]2c3cc4c(cc3[C@@H](Nc3cccc(F)c3)[C@H]3COC(=O)[C@@H]32)OCO4)=CC(=O)C1=O: 100
COc1cc([C@@H]2c3cc4c(cc3[C@@H](Nc3cccc(F)c3)[C@H]3COC(=O)[C@H]23)OCO4)cc(OC)c1O: 50
COc1cc([C@@H]2c3cc4c(cc3[C@@H](Nc3cncc5ccccc35)[C@H]3COC(=O)[C@H]23)OCO4)cc(OC)c1O: 50
COC1=CC([C@@H]2c3cc4c(cc3[C@@H](Nc3ccc(C#N)cc3)[C@H]3COC(=O)[C@@H]32)OCO4)=CC(=O)C1=O: 50
COc1cc([C@@H]2c3cc4c(cc3[C@@H](Nc3cccc([N+](=O)[O-])c3)[C@H]3COC(=O)[C@H]23)OCO4)cc(O)c1O: 50

* * *

target: DNA topoisomerase 2-alpha (Homo sapiens); experiment: Inhibition of human DNA topoisomerase 2
ID50 overview
measure-name: ID50

COc1cc([C@@H]2c3cc4c(cc3[C@H](O)[C@H]3COC(=O)[C@H]23)OCO4)cc(OC)c1O: > 100 µM
COC1=CC([C@@H]2c3cc4c(cc3[C@@H](O)[C@H]3COC(=O)[C@@H]32)OCO4)=CC(=O)C1=O: < 5 µM
COC1=CC([C@@H]2c3cc4c(cc3[C@@H](Nc3cc(C(F)(F)F)cc(C(F)(F)F)c3)[C@H]3COC(=O)[C@@H]32)OCO4)=CC(=O)C1=O: > 100 µM
COc1cc([C@@H]2c3cc4c(cc3[C@@H](Nc3cc(C(F)(F)F)cc(C(F)(F)F)c3)[C@H]3COC(=O)[C@H]23)OCO4)cc(OC)c1O: > 100 µM
